Recorded values, source PubChem BioAssay AID686979.

Test: qHTS for Inhibitors of human tyrosyl-DNA phosphodiesterase 1 (TDP1): qHTS in cells in presence of CPT; also: nearly all actives have a fitted effect of over 55% in size
Settings: chicken DT40 Tdp1-/-;hTDP1 cells + 20 nM CPT, ATP luminescence, 48 h; series mostly up to 46.2 µM
Description: Human tyrosyl-DNA phosphodiesterase 1 (TDP1) is a novel repair gene, and we propose to use it as a new target for anticancer drug development. […] For the primary screen, Tdp1-/-;hTDP1 cells will be exposed to small molecules in the presence or absence of CPT, and their growth kinetics will be evaluated after 48 hours by measuring ATP activity. […] The hit compounds will then be evaluated in the presence or absence of CPT using Tdp1-/- cells. […]
In all, about 420,000 compounds went through this assay and about 50,000 (12%) were called active. Inconclusive results (about 26%) are left out. Calls follow the shape of the dose curve; as a rule, active = well fitted inhibition curve with a large enough effect; inconclusive = small, poorly fitted or top-dose-only effect; inactive = flat fitted curve, though single readings scatter. Only a selection was taken, and actives are over-represented in it overall.
Pick one: t = active, f = inactive

compound="CCC(C)N(C(=O)CSc1ncnc2c1cnn2-c1ccccc1)C1CCS(=O)(=O)C1 (stereo unspecified)" discrete_label=f
compound="COC(=O)c1ccc(C)c(NC(=O)C2CC(=O)N(C3CCCC(C)C3C)C2)c1 (stereo unspecified)" discrete_label=f
compound=O=C(O)c1cccc(N=NN2CCCCCC2)c1 discrete_label=f

# next compound below
Just curious, what result did COc1ccc(CC(N)C(=O)NC2C(O)[C@H](n3cnc4c(N(C)C)ncnc43)O[C@@H]2CO)cc1 (stereo partly specified) get here?
t

* * *

test: qHTS for Inhibitors of human tyrosyl-DNA phosphodiesterase 1 (TDP1): qHTS in cells in presence of CPT; conditions: chicken DT40 Tdp1-/-;hTDP1 cells + 20 nM CPT, ATP luminescence, 48 h; series mostly up to 46.2 µM; also: nearly all actives have a fitted effect of over 55% in size
The whole screen tested about 420,000 compounds, of which about 50,000 (12%) were called active. Another 26% or so got no clear call; they are omitted. Calls come from the whole dose curve; as a rule, active = well fitted inhibition curve with a large enough effect; inconclusive = small, poorly fitted or top-dose-only effect; inactive = flat fitted curve, though single readings scatter. The list comes from a sample in which actives are over-represented; it also holds close analogues and randomly drawn compounds.
Pick one: 1 (yes) = active, 0 (no) = inactive

molecule="Cc1nnc(N2CCCC(C(=O)NCCN(C)C)C2)c2nn(-c3ccccc3)c(C)c12 (stereo unspecified)" discrete_label="0 (no)"
molecule="CCOc1ccc(CNC(=O)C2CCCN(c3nnc(C)c4c(C)n(-c5ccccc5)nc34)C2)cc1 (stereo unspecified)" discrete_label="1 (yes)"
molecule="CCCCC(NS(=O)(=O)c1ccc(C)cc1)C(=O)Oc1ccc2c3c(c(=O)oc2c1)CCC3 (stereo unspecified)" discrete_label="0 (no)"
molecule=Cc1ccc(Cc2c(-c3ccccc3)nc3ccc(Cl)cn23)cc1 discrete_label="0 (no)"
molecule=Cc1ccc(-c2nc3c(C)cc(Br)cn3c2Cc2ccccc2)cc1 discrete_label="0 (no)"
molecule=CC(=O)Nc1c(-c2ccc(C)cc2)nc2ccc(Cl)cn12 discrete_label="0 (no)"

Just curious, what result did Cc1ccccc1OC/C(O)=C(\C#N)c1nc2ccccc2[nH]1 get here?
0 (no)

Just curious, what result did Cc1ccccc1OCC(=O)Nc1nc(C)c(C(=O)N(C)C)s1 get here?
0 (no)

Just curious, what result did CCOc1ccc(C(=O)NC(=S)Nc2ccc(N3CCOCC3)c(Cl)c2)cc1[N+](=O)[O-] get here?
1 (yes)

Just curious, what result did N#C/C(=C(/O)COC(=O)COc1ccc(Cl)cc1)c1nc2ccccc2[nH]1 get here?
1 (yes)

Just curious, what result did CCOc1ccc(-c2nnn(CC(=O)N3CCN(c4ccc(F)cc4)CC3)n2)cc1OCC get here?
0 (no)

Just curious, what result did CC(C)[C@H]1CC[C@@H](C)C[C@H]1O get here?
0 (no)

Just curious, what result did Cc1cc(Br)cn2c(Cc3ccccc3C(F)(F)F)c(-c3ccc(Cl)cc3)nc12 get here?
0 (no)
